Measured inhibition accompanies every entry in the list below.
# assay_text: inhibition of PEG-3 promoter-driven reporter – cell-based, HeLa, luciferase, CREF/GAPDH counter-screen panel, dose response (AID 624167)
# run_parameters: CREF/GAPDH counter-screens; run 2, dose range 1, at 100 µM (top of the series)
Write the answer as a number in %, unit excluded.

CC1=CC2/C=C(\C)CCC(O)C(O)/C=C/C(=O)C23C(=O)NC(CC(C)C)C3C1C (stereo unspecified) | 100
CC(=O)OC1CC[C@]2(C#N)[C@H]3CC[C@]4(C)[C@H](C5C=CC(=O)O5)CCC4(O)C3CCC2(O)C1 (stereo partly specified) | 83.6
O=C(CSC1c2ccccc2-c2ccccc21)N/N=C/c1ccccc1O | 53.7
C=Cc1cc(OC)c2c(c1)c(=O)oc1c2cc(OC)c2c(O)ccc(C3OC(C)C(O)C(C)(O)C3O)c21 (stereo unspecified) | 40.5
COC(COC(N)=O)C1=C(N2CC2)C(=O)C(C)=C(N2CC2)C1=O (stereo unspecified) | 89

Kindly note the recorded inhibition for CC(=O)OC1(C)CC(C)C(=O)C(C(O)CC2CC(=O)NC(=O)C2)C1 (stereo unspecified) , which is 95.8

src = PubChem BioAssay AID624167
